TARGET OR TEST SYSTEM: AKT2 (Homo sapiens)
Sequence (P31751 whole entry): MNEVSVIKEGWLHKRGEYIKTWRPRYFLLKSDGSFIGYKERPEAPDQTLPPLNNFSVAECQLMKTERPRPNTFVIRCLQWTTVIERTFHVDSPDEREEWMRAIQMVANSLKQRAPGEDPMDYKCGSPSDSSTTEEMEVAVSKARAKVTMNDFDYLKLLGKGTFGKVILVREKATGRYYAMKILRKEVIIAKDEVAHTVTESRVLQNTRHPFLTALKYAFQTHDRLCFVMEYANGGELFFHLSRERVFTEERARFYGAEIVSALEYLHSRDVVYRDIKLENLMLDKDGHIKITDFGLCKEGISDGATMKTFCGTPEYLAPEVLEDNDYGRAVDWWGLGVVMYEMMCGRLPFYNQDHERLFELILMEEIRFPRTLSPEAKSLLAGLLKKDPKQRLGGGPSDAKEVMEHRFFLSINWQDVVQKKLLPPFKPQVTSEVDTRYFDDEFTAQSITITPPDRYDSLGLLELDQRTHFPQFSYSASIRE
ASSAY NAME: Live cell target engagement by NanoBRET competitive probe displacement, AKT2
CONDITION INFO: transfected HEK293 cells, 2 h at 37° C., read-out: AKT2 IC50: GeoMean IC50
Description: Determining live cell AKT1 E17K, AKT1 WT, and AKT2 target engagement by NanoBRET competitive probe displacement. Live cell target engagement assays were performed as described (Vasta, J. D. et al. Cell Chem Biol 2018, 25(11), 206-214). […] After incubation for 2 h at 37° C., luciferase substrate and extracellular luciferase inhibitor were added to all wells, and luminescent intensity at 460 nm and 600 nm were measured on a multimode plate-reader. […]
Each entry below carries its reported IC50.

Sample answers from the record:
Output IC50 of Cc1cc(-n2ccc(F)n2)nc2c1nc(-c1cccnc1N)n2-c1ccc2c(c1)CC[C@@H]2NC(=O)c1cc(C=O)c(O)c(F)c1F [Example 199]
100 to 2000 nM

Output IC50 of Nc1ncccc1-c1nc2ccc(-n3cc(C(F)F)cn3)nc2n1-c1ccc2c(c1)CC[C@@H]2NC(=O)c1ccc(O)c(C=O)c1 [Example 94]
100 to 2000 nM

Output IC50 of Nc1cc(O)c(C=O)cc1C(=O)N[C@H]1CCc2cc(-n3c(-c4cccnc4N)nc4ccc(-n5cccn5)nc43)ccc21 [Example 237]
100 to 2000 nM

Output IC50 of Nc1ncccc1-c1nc2ccc(-c3ccccc3)nc2n1-c1ccc2c(c1)CC[C@@H]2NC(=O)c1ccc(O)c(C=O)c1 [Example 5]
10 to 100 nM

Output IC50 of COCc1cnn(-c2ccc3nc(-c4cccnc4N)n(-c4ccc5c(c4)CC[C@@H]5NC(=O)c4cc(C=O)c(O)cc4F)c3n2)c1 [Example 152]
100 to 2000 nM

Output IC50 of Nc1ncccc1-c1nc2ccc(-c3ccccn3)nc2n1-c1ccc2c(c1)CC[C@@H]2NC(=O)c1ccc(O)c(C=O)c1 [Example 25]
100 to 2000 nM

Output IC50 of Nc1ncccc1-c1nc2ccc(-n3cccn3)nc2n1-c1ccc2c(c1)CC[C@@H]2NC(=O)c1cc(C=O)c2[nH]ncc2c1 [Example 66]
100 to 2000 nM

Output IC50 of Cc1cc(-c2ncco2)nc2c1nc(-c1cccnc1N)n2-c1ccc2c(c1)CC[C@@H]2NC(=O)c1ccc(O)c(C=O)c1 [Example 211]
100 to 2000 nM

Output IC50 of COc1cc(-n2cccn2)nc2c1nc(-c1cccnc1N)n2-c1ccc2c(c1)CC[C@@H]2NC(=O)c1cc(C=O)c(O)c(F)c1F [Example 222]
10 to 100 nM

Output IC50 of CN(C)Cc1cc(C(=O)N[C@H]2CCc3cc(-n4c(-c5cccnc5N)nc5ccc(-n6cccn6)nc54)ccc32)cc(C=O)c1O [Example 192]
≥ 2000 nM

---
Output IC50 of Nc1ncccc1-c1nc2c(Cl)cc(-n3cccn3)nc2n1-c1ccc2c(c1)CC[C@@H]2NC(=O)c1cc(C=O)c(O)c(F)c1F [Example 212]
10 to 100 nM

Output IC50 of Nc1ncccc1-c1nc2ccc(-c3nccs3)nc2n1-c1ccc2c(c1)CC[C@@H]2NC(=O)c1cc(F)c(O)c(C=O)c1 [Example 130]
100 to 2000 nM

Output IC50 of CC(=O)Nc1ccc(C(=O)N[C@H]2CCc3cc(-n4c(-c5cccnc5N)nc5ccc(-n6cccn6)nc54)ccc32)cc1C=O [Example 56]
100 to 2000 nM

Output IC50 of Nc1ncccc1-c1nc2ccc(-n3ncc4cccnc43)nc2n1-c1ccc2c(c1)CC[C@@H]2NC(=O)c1cc(C=O)c(O)c(F)c1F [Example 172]
100 to 2000 nM

Output IC50 of CN(C)c1nc2cc(C(=O)N[C@H]3CCc4cc(-n5c(-c6cccnc6N)nc6ccc(-n7cccn7)nc65)ccc43)cc(C=O)c2[nH]1 [Example 175]
10 to 100 nM

Output IC50 of Nc1ncccc1-c1nc2c(OC(F)F)cc(-n3cccn3)nc2n1-c1ccc2c(c1)CC[C@@H]2NC(=O)c1ccc(O)c(C=O)c1 [Example 225]
100 to 2000 nM

Output IC50 of Cc1ccc2nc(-c3cccnc3N)n(-c3ccc4c(c3)CC[C@@H]4NC(=O)c3ccc(O)c(C=O)c3)c2n1 [Example 13]
≥ 2000 nM

Output IC50 of Nc1ncccc1-c1nc2ccc(-c3cnccn3)nc2n1-c1ccc2c(c1)CC[C@@H]2NC(=O)c1cc(C=O)c2[nH]ncc2c1 [Example 73]
100 to 2000 nM
